Origin of the recorded values: patent US9611281B2

- protocol_description: Optical properties (absorption, emission, extinction coefficient) of BDP635 and derivative SBDPiRs
- Assay type: physicochemical
Item-by-item account of λflu
Supply the numeric figure in nm, leaving out any unit text.

smiles_str | result_unit | λflu
F[B-]1(F)n2c(cc3sc(Sc4ccccc4)cc32)C(C(F)(F)F)=C2C=c3sc(Sc4ccccc4)cc3=[N+]21 | nm | 715
F[B-]1(F)n2c(cc3sc(Oc4ccc(-c5ccccc5)cc4)cc32)C(C(F)(F)F)=C2C=c3sc(Oc4ccc(-c5ccccc5)cc4)cc3=[N+]21 | nm | 660

# input Data request, read-out λflu, for Oc1ccc(-c2cc3c(s2)=CC2=C(C(F)(F)F)c4cc5sc(-c6ccc(O)cc6)cc5n4[B-](F)(F)[N+]=32)cc1
# output 763
